EXPERIMENTAL_TARGET: T1, human ROR1 (hROR1) on cells (human, UniProt Q01973 30-937)
T1 construct: whole, on cells; the cell line is named under assay; also called HEK293T-hROR1; 293T-hROR1
T1 sequence (Q01973 30-937): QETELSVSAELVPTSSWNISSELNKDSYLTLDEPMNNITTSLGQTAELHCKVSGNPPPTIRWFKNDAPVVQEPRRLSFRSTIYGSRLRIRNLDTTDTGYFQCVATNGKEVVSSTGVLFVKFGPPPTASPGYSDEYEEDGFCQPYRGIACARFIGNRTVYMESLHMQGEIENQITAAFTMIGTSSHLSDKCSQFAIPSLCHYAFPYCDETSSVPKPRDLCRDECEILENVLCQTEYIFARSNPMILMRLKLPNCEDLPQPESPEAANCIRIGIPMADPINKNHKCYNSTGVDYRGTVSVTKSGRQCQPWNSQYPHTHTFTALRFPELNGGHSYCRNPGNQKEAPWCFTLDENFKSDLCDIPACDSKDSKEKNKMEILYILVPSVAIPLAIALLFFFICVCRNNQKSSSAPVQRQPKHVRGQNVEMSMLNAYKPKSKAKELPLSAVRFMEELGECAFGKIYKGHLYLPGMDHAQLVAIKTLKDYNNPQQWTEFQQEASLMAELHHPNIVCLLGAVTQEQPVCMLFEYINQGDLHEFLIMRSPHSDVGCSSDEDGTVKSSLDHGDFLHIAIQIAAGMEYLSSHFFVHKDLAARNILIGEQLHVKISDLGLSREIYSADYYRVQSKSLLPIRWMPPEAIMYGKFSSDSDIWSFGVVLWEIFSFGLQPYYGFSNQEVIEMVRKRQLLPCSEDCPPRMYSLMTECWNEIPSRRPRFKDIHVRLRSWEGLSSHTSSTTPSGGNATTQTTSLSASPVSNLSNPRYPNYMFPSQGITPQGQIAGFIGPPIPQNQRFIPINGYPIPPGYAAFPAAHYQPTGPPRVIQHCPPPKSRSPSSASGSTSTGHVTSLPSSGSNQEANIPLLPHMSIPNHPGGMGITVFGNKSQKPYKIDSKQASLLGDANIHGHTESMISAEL
ASSAY_METHOD_TEXT: FACS, HEK293T-hROR1 cells
PROPERTY: fold lower EC50 than reference PR000374 (fold)
// note: answer is a bare numeric in fold

[
  {
    "BINDER": "PR001368 (antibody, V domains shown, fully human IgG1, kappa) VH: QVQLVESGGGVVQPGRSLRLSCAASGFTFSTYGMHWVRQAPGKGLEWVAVIWYDGSDTDYADSVKGRFTISRDTSKNTLYLQMNSLRAEDTAVYYCAREQARSFDLWGRGTLVTVSS VL: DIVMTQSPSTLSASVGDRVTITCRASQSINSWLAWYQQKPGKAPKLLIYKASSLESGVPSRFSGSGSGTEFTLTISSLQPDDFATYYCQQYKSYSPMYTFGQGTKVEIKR",
    "fold lower EC50 than reference PR000374, fold": 10
  }
]

In: Requested read-out: fold lower EC50 than reference PR000374. Entry: PR001369 (antibody, human IgG1, kappa, V domains shown, fully human IgG1, kappa; also called anti-ROR1 1015M3-H10 hIgG1; PR001369(WT)) VH: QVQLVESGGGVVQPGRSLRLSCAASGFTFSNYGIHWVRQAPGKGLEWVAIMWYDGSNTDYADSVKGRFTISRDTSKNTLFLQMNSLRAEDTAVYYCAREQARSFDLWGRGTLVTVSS VL: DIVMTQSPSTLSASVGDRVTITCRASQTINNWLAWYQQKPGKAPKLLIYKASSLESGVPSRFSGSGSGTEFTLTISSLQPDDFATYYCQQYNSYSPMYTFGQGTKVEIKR
Out: 10
